# target_system: T1, recombinant human PD-L1 (human, UniProt Q9NZQ7 19-238)
# T1 construct: the whole natural entry is named
# T1 sequence (Q9NZQ7 19-238 limits assumed): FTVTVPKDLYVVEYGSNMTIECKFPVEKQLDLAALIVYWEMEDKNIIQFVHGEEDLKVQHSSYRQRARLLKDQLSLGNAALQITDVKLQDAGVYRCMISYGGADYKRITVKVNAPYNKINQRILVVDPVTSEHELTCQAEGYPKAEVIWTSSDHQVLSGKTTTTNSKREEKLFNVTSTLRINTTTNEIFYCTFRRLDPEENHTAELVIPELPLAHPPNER
# experiment: SPR (ProteOn XPR36), antibody captured on Protein A, human PD-L1 as analyte, 1:1 Langmuir fit
quantity_measured: kon
In your response, the unit should come after the numeric value.

// Input: 2.74.15.hAb5 (antibody, V domains shown, Humanized antibody with a human constant region of IgG4 isotype) VH: QVQLQESGPGLVKPSETLSLTCTVTGYSITSGYIWHWIRQPAGKGLEWIGYIHYSGTTDFNPSLESRVTISVDTSKNQFSLKLSSVTAADTAVYYCAREGRSYGGFAYWGQGTLVTVSS VL: DIQLTQSPSFLSASVGDRVTITCKASQSVSNGVAWYQQKPGKAPKLLIYYASNRFTGVPSRFSGSGSGTEFTLTISSLQPEDFATYYCQQDYSSPFTFGQGTKLEIK . Output its kon only.
1.27e+06 M⁻¹ s⁻¹
